Biological target: bilitranslocase (BTL) homologue
Test: inhibition of electrogenic BSP uptake into pulp microsomes, spectrophotometric
Here the recorded pKi is given for each entry.
Entry type: numeric. Quantity: pKi, the -log10 of concentration in molar units.

O=c1c(O)c(-c2ccc(O)c(O)c2)oc2cc(O)cc(O)c12 [quercetin] ... 4.01

Then there is this compound:
O=C1C[C@@H](c2ccc(O)c(O)c2)Oc2cc(O)cc(O)c21 [eriodictyol] on bilitranslocase (BTL) homologue gives pKi = 4.12
